testSystem: UniProtKB Q8N884
measurementProtocol: Inhibition of recombinant His6-SUMO tagged human CGAS expressed in Escherichia coli BL21/pLys cells incubated for 20 mins by Kinase Glo chemiluminescence assay
Parameter IC50: see the listing below.

Req: Give the measured IC50 for CN1C(=O)S/C(=C\c2cc(OCc3cnc(NC(=O)c4ccncc4)nc3)c(O)cc2Br)C1=O
Resp: ≤ 0.5 µM

Req: Please list IC50 recorded for the compound CC(=O)c1cc(/C=C2\SC(=O)N(C)C2=O)c(Br)cc1Oc1cnc(N)s1
Resp: ≥ 10 µM

* * *

Collected IC50 values appear next to each entry.
testSystem: Cyclic GMP-AMP synthase (Homo sapiens, UniProt Q8N884)
Sequence (Q8N884 whole entry): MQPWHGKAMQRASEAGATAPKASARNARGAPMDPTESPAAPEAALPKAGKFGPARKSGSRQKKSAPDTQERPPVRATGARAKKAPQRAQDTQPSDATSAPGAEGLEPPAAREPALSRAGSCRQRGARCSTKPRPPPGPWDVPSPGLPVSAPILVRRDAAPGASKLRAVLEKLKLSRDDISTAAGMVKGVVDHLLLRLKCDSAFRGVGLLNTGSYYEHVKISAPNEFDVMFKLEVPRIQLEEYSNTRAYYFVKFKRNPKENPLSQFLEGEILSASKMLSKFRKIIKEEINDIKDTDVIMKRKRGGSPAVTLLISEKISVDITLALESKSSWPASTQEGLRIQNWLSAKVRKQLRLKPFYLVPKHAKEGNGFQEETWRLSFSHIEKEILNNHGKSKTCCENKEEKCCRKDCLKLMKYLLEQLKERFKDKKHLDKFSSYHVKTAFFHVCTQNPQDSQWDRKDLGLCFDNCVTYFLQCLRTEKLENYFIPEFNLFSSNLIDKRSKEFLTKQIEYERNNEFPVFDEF
measurementProtocol: Inhibition of recombinant His6-SUMO tagged human CGAS expressed in Escherichia coli BL21/pLys cells incubated for 20 mins by Kinase Glo chemiluminescence assay

Would you please look over these solved cases?
chemSmiles	observedValue
COc1cc(/C=C2\SC(=O)N(C)C2=O)c(F)cc1O	≥ 10 µM
COc1cc(/C=C2\Sc3ncncc3C2=O)c(Br)cc1O	0.5 to 10 µM

Req: Specify IC50 for COc1cc(/C=C2\SC(=O)N(C)C2=S)c(Br)cc1O and stop.
Resp: ≤ 0.5 µM

Req: Look up and state reported IC50 for C#Cc1cc(O)c(OC)cc1/C=C1\SC(=O)N(C)C1=O
Resp: ≥ 10 µM

Req: Indicate the recorded IC50 value for this molecule: CN1C(=O)S/C(=C\c2cc(OCc3ccccc3)c(O)cc2Br)C1=O
Resp: ≥ 10 µM

Req: Give recorded IC50. CC(C)CNc1cncc(COc2cc(/C=C3\SC(=O)N(C)C3=O)c(Br)cc2O)c1
Resp: ≥ 10 µM

* * *

testSystem: Cyclic GMP-AMP synthase (Homo sapiens, UniProt Q8N884)
measurementProtocol: Inhibition of recombinant His6-SUMO tagged human CGAS expressed in Escherichia coli BL21/pLys cells incubated for 20 mins by Kinase Glo chemiluminescence assay
parameter: IC50

molecule	testSystem	observedValue
CC(C)CNc1ncc(COc2cc(/C=C3\SC(=O)N(C)C3=O)c(Br)cc2O)cn1	Cyclic GMP-AMP synthase (Homo sapiens, UniProt Q8N884)	≥ 10 µM
CC(Oc1cc(/C=C2\SC(=O)N(C)C2=O)c(Br)c(F)c1O)c1cncnc1N (stereo not given)	Cyclic GMP-AMP synthase (Homo sapiens, UniProt Q8N884)	0.5 to 10 µM
COc1cc(/C=C2\Sc3ncccc3C2=O)c(Br)c(F)c1O	Cyclic GMP-AMP synthase (Homo sapiens, UniProt Q8N884)	≤ 0.5 µM

Req: Output IC50 of CCC(Oc1cc(/C=C2\SC(=O)N(C)C2=O)c(Br)c(F)c1O)c1cnc(N)nc1 (stereo not given)
Resp: ≤ 0.5 µM

Req: Supply measured IC50 of CN1C(=O)S/C(=C\c2cc(OCc3cnc(N)nc3C3CC3)c(O)c(F)c2Br)C1=O in your reply.
Resp: 0.5 to 10 µM

Req: Give the reported value of IC50 for this record: CN1C(=O)S/C(=C\c2cc(OCc3cnc(-c4cccnc4)nc3)c(O)cc2Br)C1=O
Resp: ≥ 10 µM

* * *

testSystem: Cyclic GMP-AMP synthase (Homo sapiens)
measurementProtocol: Inhibition of CGAS in human THP1 cells transfected with interferon stimulatory DNA and measured after 16 hrs by Gaussia luciferase reporter gene assay
Assay type: cell-based
pIC50: −log10 of the molar value.
parameter: pIC50

Example entries begin here.
molecule	observedValue
Nc1ncncc1COc1cc(/C=C2\Sc3ncccc3C2=O)c(Br)cc1O	5.00 to 5.60
Cc1nc(N)ncc1COc1cc(/C=C2\SC(=O)N(C)C2=O)c(Br)cc1O	≥ 5.60
COc1cc(/C=C2\SC(=O)N(C)C2=O)c(Cl)cc1O	≥ 5.60
CN1C(=O)S/C(=C\c2cc(OCc3ccnc4[nH]cnc34)c(O)cc2Br)C1=O	≥ 5.60

Okay, now this molecule:
Req: Print Cyclic GMP-AMP synthase (Homo sapiens) pIC50 for CC1C(=O)S/C(=C\c2cc(OC(C)c3cnc(N)nc3C(F)(F)F)c(O)c(F)c2Br)C1=O (stereo not given) .
Resp: 5.00 to 5.60

* * *

Listing of recorded IC50 by entry.
testSystem: Cyclic GMP-AMP synthase (Homo sapiens, UniProt Q8N884)
measurementProtocol: Inhibition of recombinant His6-SUMO tagged human CGAS expressed in Escherichia coli BL21/pLys cells incubated for 20 mins by Kinase Glo chemiluminescence assay

# count of solved cases: 5
compound	parameter	observedValue
CN1C(=O)S/C(=C\c2cc(OCC3CCN(C(=O)c4ccncc4)CC3)c(O)cc2Br)C1=O	IC50	≥ 10 µM
COc1cc(/C=C2\SC(=O)N(C)C2=O)c(I)cc1O	IC50	≤ 0.5 µM
Nc1ncncc1COc1cc(/C=C2\Sc3ncccc3C2=O)c(Br)cc1O	IC50	≤ 0.5 µM
CC(C)C(=O)N1CCC(COc2cc(/C=C3\SC(=O)N(C)C3=O)c(Br)cc2O)CC1	IC50	≥ 10 µM
CN1C(=O)S/C(=C\c2cc(Oc3ccc(=O)[nH]c3)c(O)cc2Br)C1=O	IC50	0.5 to 10 µM

Req: Please respond with reported IC50 (system Cyclic GMP-AMP synthase (Homo sapiens, UniProt Q8N884)) for CN1C(=O)S/C(=C\c2cc(OCC3CCN(C(=O)c4ccccn4)CC3)c(O)cc2Br)C1=O .
Resp: ≥ 10 µM

Req: Report IC50 under test system Cyclic GMP-AMP synthase (Homo sapiens, UniProt Q8N884) for CN1C(=O)S/C(=C\c2cc(OCCc3ccncc3)c(O)cc2Br)C1=O .
Resp: 0.5 to 10 µM

Req: Fetch value of IC50 on Cyclic GMP-AMP synthase (Homo sapiens, UniProt Q8N884) for CN1C(=O)S/C(=C\c2cc(OC(F)(F)F)c(O)cc2Br)C1=O .
Resp: ≥ 10 µM

Req: For Cyclic GMP-AMP synthase (Homo sapiens, UniProt Q8N884), give IC50 of the listed compound: COc1cc(/C=C2\Sc3ncccc3C2=O)c(I)cc1O
Resp: ≤ 0.5 µM

Req: Report value: IC50, system: Cyclic GMP-AMP synthase (Homo sapiens, UniProt Q8N884), compound: CN1C(=O)S/C(=C\c2cc(OCc3cn[nH]c3)c(O)cc2Br)C1=O
Resp: ≤ 0.5 µM

Req: Recall the reported IC50 of CN1C(=O)S/C(=C\c2cc(Oc3cccc(O)c3N)c(O)cc2Br)C1=O on Cyclic GMP-AMP synthase (Homo sapiens, UniProt Q8N884) and write it down.
Resp: ≥ 10 µM

Req: Report the value of IC50 obtained on Cyclic GMP-AMP synthase (Homo sapiens, UniProt Q8N884) for CN1C(=O)S/C(=C\c2cc(OCc3cnc(N4CCCCC4)nc3)c(O)cc2Br)C1=O .
Resp: ≥ 10 µM

Req: With Cyclic GMP-AMP synthase (Homo sapiens, UniProt Q8N884) as the test system, provide measured IC50 for this compound: O=C1/C(=C/c2cc(OCc3cccnc3)c(O)cc2Br)Sc2ncccc21
Resp: ≤ 0.5 µM

Req: Report IC50 under test system Cyclic GMP-AMP synthase (Homo sapiens, UniProt Q8N884) for CN1C(=O)S/C(=C\c2cc(Oc3ccc([N+](=O)[O-])nc3)c(O)cc2Br)C1=O .
Resp: ≥ 10 µM

Req: Look up Cyclic GMP-AMP synthase (Homo sapiens, UniProt Q8N884) data: IC50 of CN1C(=O)S/C(=C\c2cc(Oc3ccc(-c4ccccn4)cc3)c(O)cc2Br)C1=O , then report it.
Resp: ≥ 10 µM

Req: Quote Cyclic GMP-AMP synthase (Homo sapiens, UniProt Q8N884) IC50 for entry CN1C(=O)S/C(=C\c2cc(OCc3cnc(Cl)nc3)c(O)c(F)c2Br)C1=O .
Resp: ≥ 10 µM

Req: State recorded IC50 with Cyclic GMP-AMP synthase (Homo sapiens, UniProt Q8N884), entry COc1cc(/C=C2\SC(=O)N(C)C2=O)c(Br)cc1Oc1ccncc1 , no comment.
Resp: ≥ 10 µM

Req: For Cyclic GMP-AMP synthase (Homo sapiens, UniProt Q8N884), give IC50 of the listed compound: CN1CCC(COc2cc(/C=C3\SC(=O)N(C)C3=O)c(Br)cc2O)CC1
Resp: ≥ 10 µM

Req: // fetch IC50; item: Cc1ncc(COc2cc(/C=C3\Sc4ncccc4C3=O)c(Br)c(F)c2O)cn1 ; system: Cyclic GMP-AMP synthase (Homo sapiens, UniProt Q8N884)
Resp: ≤ 0.5 µM

Req: Tell me IC50 of CSc1cc(/C=C2\SC(=O)N(C)C2=O)c(Br)cc1O when tested on Cyclic GMP-AMP synthase (Homo sapiens, UniProt Q8N884).
Resp: 0.5 to 10 µM

Req: Write down measured IC50 (Cyclic GMP-AMP synthase (Homo sapiens, UniProt Q8N884)) for this compound. CCC/N=C1/S/C(=C\c2cc(OC)c(O)cc2Br)C(=O)N1C
Resp: ≥ 10 µM

Req: // output IC50; input CN1C(=O)S/C(=C\c2cc(OCC3(c4cnc(N)nc4)CC3)c(O)c(F)c2Br)C1=O ; system Cyclic GMP-AMP synthase (Homo sapiens, UniProt Q8N884)
Resp: 0.5 to 10 µM

Req: Find IC50 for CN1C(=O)S/C(=C\c2cc(OCc3ccn(-c4ccccc4)c(=O)c3)c(O)cc2Br)C1=O on Cyclic GMP-AMP synthase (Homo sapiens, UniProt Q8N884) and write it down.
Resp: ≥ 10 µM

Req: // fetch IC50 for COc1cc(/C=c2\sc3n(c2=O)CCN=3)c(Cl)cc1O ; system: Cyclic GMP-AMP synthase (Homo sapiens, UniProt Q8N884)
Resp: ≥ 10 µM

Req: Check Cyclic GMP-AMP synthase (Homo sapiens, UniProt Q8N884) data and give IC50 for CNc1ncc(C(C)Oc2cc(/C=C3\SC(=O)N(C)C3=O)c(Br)cc2O)cn1 (stereo unspecified) .
Resp: ≥ 10 µM
